biological target: MHC-II DRB1*07:01 (Homo sapiens, UniProt P01903+P01911, A100R/A102G/A103Q/D57E/D86V/E43K/F76Y/K127E/L162R/M171V/P40G/Q125H/Q99D/R33Q/R42Y/R54Q/S133A/S66F/T210M/V115G/Y107V/Y59L/Y89S); test: Cell-free REVEAL class II binding assay; conditions: signal of test peptide as percentage of allele-specific positive control peptide, fluorescence, conformation-specific monoclonal antibody
REPORTED_PROPERTY: Binding Score (%)
Value expressed in %; do not type the unit.

### Prompt What does the data say about its Binding Score? Entry: TRYLRIHPQSWVHQI [synthetic wild type FVIII 15 mer peptide]
### Response 34.0

### Prompt What does the data say about its Binding Score? Entry: TKSDPRCLTRYYSSF [synthetic wild type FVIII 15 mer peptide]
### Response 0.0

### Prompt What does the data say about its Binding Score? Entry: NNPKEWLQVDFQKTM [synthetic wild type FVIII 15 mer peptide, region of ns-SNP M2238V]
### Response 0.6

### Prompt What does the data say about its Binding Score? Entry: YTFKHKMVYEDTLTL [synthetic wild type FVIII 15 mer peptide]
### Response 0.0

### Prompt What does the data say about its Binding Score? Entry: SRPYNIYPHGITDVR [synthetic wild type FVIII 15 mer peptide, region of ns-SNP R484H]
### Response 0.0

### Prompt What does the data say about its Binding Score? Entry: GITDVRPLYSRRLPK [synthetic wild type FVIII 15 mer peptide, region of ns-SNP R484H]
### Response 2.0

### Prompt What does the data say about its Binding Score? Entry: PLLTRYLRIHPQSWV [synthetic wild type FVIII 15 mer peptide]
### Response 1.7

### Prompt What does the data say about its Binding Score? Entry: KMVYEDTLTLFPFSG [synthetic wild type FVIII 15 mer peptide]
### Response 0.0

* * *

For each record, write down the corresponding Stability Index.
biological target: MHC-II DRB1*15:01 (Homo sapiens, UniProt P01903+P01911); construct: purchased ProImmune; assay: Cell-free REVEAL class II stability assay; settings: half-life of peptide-MHC-II complex (h, capped at 120) x Binding Score / 100, conformational ELISA
// no unit string in output, number only

### Prompt What does the data say about its Stability Index? Entry: SGYTFKHKMVYEDTL [synthetic wild type FVIII 15 mer peptide]
### Response 1.2

### Prompt What does the data say about its Stability Index? Entry: RSNAWRPQVNNPKEW [synthetic wild type FVIII 15 mer peptide]
### Response 0.5

### Prompt What does the data say about its Stability Index? Entry: YIRLHPTHYSIRSTL [synthetic wild type FVIII 15 mer peptide]
### Response 1434.9

### Prompt What does the data say about its Stability Index? Entry: IARYIRLHPTHYSIR [synthetic wild type FVIII 15 mer peptide]
### Response 4055.5

### Prompt What does the data say about its Stability Index? Entry: LSTRQNVEGSYDGAY [synthetic wild type FVIII 15 mer peptide, region of ns-SNP D1241E]
### Response 0.0

### Prompt What does the data say about its Stability Index? Entry: DGAYAPVLQDFRSLN [synthetic wild type FVIII 15 mer peptide, region of ns-SNP D1241E]
### Response 0.0

### Prompt What does the data say about its Stability Index? Entry: DIEKTDPWFAHRTPM [synthetic wild type FVIII 15 mer peptide, region of ns-SNP R776G]
### Response 0.2

### Prompt What does the data say about its Stability Index? Entry: SYDGAYAPVLQDFRS [synthetic wild type FVIII 15 mer peptide, region of ns-SNP D1241E]
### Response 0.0

### Prompt What does the data say about its Stability Index? Entry: NPPIIARYIRLHPTH [synthetic wild type FVIII 15 mer peptide]
### Response 1374.9

### Prompt What does the data say about its Stability Index? Entry: PRCLTRYYSSFVNME [synthetic wild type FVIII 15 mer peptide]
### Response 404.2

### Prompt What does the data say about its Stability Index? Entry: TKSDPRCLTRYYSSF [synthetic wild type FVIII 15 mer peptide]
### Response 45.5

### Prompt What does the data say about its Stability Index? Entry: SLHAVGVSYWKASEG [synthetic wild type FVIII 15 mer peptide]
### Response 1.4

### Prompt What does the data say about its Stability Index? Entry: KTDPWFAHRTPMPKI [synthetic wild type FVIII 15 mer peptide, region of ns-SNP R776G]
### Response 0.1

### Prompt What does the data say about its Stability Index? Entry: LFLLSTRQNVEGSYD [synthetic wild type FVIII 15 mer peptide, region of ns-SNP D1241E]
### Response 0.1

### Prompt What does the data say about its Stability Index? Entry: AHRTPMPKIQNVSSS [synthetic wild type FVIII 15 mer peptide, region of ns-SNP R776G]
### Response 0.1

### Prompt What does the data say about its Stability Index? Entry: PWFAHRTPMPKIQNV [synthetic wild type FVIII 15 mer peptide, region of ns-SNP R776G]
### Response 0.4

### Prompt What does the data say about its Stability Index? Entry: FSSLYISQFIIMYSL [synthetic wild type FVIII 15 mer peptide]
### Response 28.0

### Prompt What does the data say about its Stability Index? Entry: RQNVEGSYDGAYAPV [synthetic wild type FVIII 15 mer peptide, region of ns-SNP D1241E]
### Response 0.0

### Prompt What does the data say about its Stability Index? Entry: TVEDGPTKSDPRCLT [synthetic wild type FVIII 15 mer peptide]
### Response 0.0

### Prompt What does the data say about its Stability Index? Entry: LQVDFQKTMKVTGVT [synthetic wild type FVIII 15 mer peptide, region of ns-SNP M2238V]
### Response 0.3

### Prompt What does the data say about its Stability Index? Entry: SYWKASEGAEYDDQT [synthetic wild type FVIII 15 mer peptide]
### Response 0.0

### Prompt What does the data say about its Stability Index? Entry: ASEGAEYDDQTSQRE [synthetic wild type FVIII 15 mer peptide]
### Response 0.0

### Prompt What does the data say about its Stability Index? Entry: NNPKEWLQVDFQKTM [synthetic wild type FVIII 15 mer peptide, region of ns-SNP M2238V]
### Response 0.2

### Prompt What does the data say about its Stability Index? Entry: GITDVRPLYSRRLPK [synthetic wild type FVIII 15 mer peptide, region of ns-SNP R484H]
### Response 34.9

### Prompt What does the data say about its Stability Index? Entry: PIIARYIRLHPTHYS [synthetic wild type FVIII 15 mer peptide]
### Response 1100.9

### Prompt What does the data say about its Stability Index? Entry: PENDIEKTDPWFAHR [synthetic wild type FVIII 15 mer peptide, region of ns-SNP R776G]
### Response 0.1
